test name: Ocular tissue and plasma pharmacokinetics, 15 mg/kg single and BID oral, Dutch Belted rabbits (Example 3/5)
Assay type: in vivo
experimental conditions: Dutch Belted, rabbit, retina, po, 15 mg/kg, DB rabbit, 15 mg/kg BID oral, Day 15, 168 h; read-out: Mean retina concentration

molecule: CC(=O)c1nn(CC(=O)N2C[C@H](F)C[C@H]2C(=O)Nc2cccc(Br)n2)c2ccc(-c3cnc(C)nc3)cc12 [Compound 1]
concentration at 168 h [ng/g]: 36.5

====

test name: Phase 1 single ascending dose plasma pharmacokinetics in healthy volunteers
Type: in vivo, human
experimental conditions: human, po, 200 mg, Group 1, 200 mg single oral dose, individual subjects, read-out: Tmax

structure string: CC(=O)c1nn(CC(=O)N2C[C@H](F)C[C@H]2C(=O)Nc2cccc(Br)n2)c2ccc(-c3cnc(C)nc3)cc12
Tmax [h]: 1.5

====

test name: Ocular tissue distribution and pharmacokinetics, 7.5 and 15 mg/kg oral, pigmented Dutch Belted rabbits (Example 7)
Assay type: in vivo
experimental conditions: Dutch Belted, rabbit, plasma, oral, […], DB rabbits, Day 1, […] single dose, 1 hr; read-out: Mean Plasma Concentration

structure string: CC(=O)c1nn(CC(=O)N2C[C@H](F)C[C@H]2C(=O)Nc2cccc(Br)n2)c2ccc(-c3cnc(C)nc3)cc12
u: ng/mL
concentration at 1 h: 423

====

test name: Ocular tissue and plasma pharmacokinetics, 50 mg/kg BID oral, Dutch Belted rabbits (Example 4/5)
Format: in vivo
experimental conditions: male, Dutch Belted, rabbit, iris-ciliary body, po, 50 mg/kg, DB rabbit, 50 mg/kg BID oral, Day 15, 240 h; read-out: Mean Iris-Ciliary Body concentration
value kind: concentration at 240 h (ng/g)

compound: CC(=O)c1nn(CC(=O)N2C[C@H](F)C[C@H]2C(=O)Nc2cccc(Br)n2)c2ccc(-c3cnc(C)nc3)cc12 [Compound 1]
observed result: 1620

====

test name: Ocular tissue and plasma pharmacokinetics, 15 mg/kg single and BID oral, Dutch Belted rabbits (Example 3/5)
Type: in vivo
experimental conditions: Dutch Belted, rabbit, choroid-RPE, oral, 15 mg/kg, DB rabbits, Day 15, 15 mg/kg BID, 168 hr; read-out: Mean Choroid-RPE Concentration
value kind: concentration at 168 h (ng/g)

molecule: CC(=O)c1nn(CC(=O)N2C[C@H](F)C[C@H]2C(=O)Nc2cccc(Br)n2)c2ccc(-c3cnc(C)nc3)cc12 [Compound 1]
observed result: 485

====

test name: Phase 1 single ascending dose plasma pharmacokinetics in healthy volunteers
Assay type: in vivo, human
experimental conditions: human, po, 200 mg, Group 1, 200 mg single oral dose, read-out: Mean AUC(0-∞)
value kind: AUC(0-inf) (ng·h/mL)

molecule: CC(=O)c1nn(CC(=O)N2C[C@H](F)C[C@H]2C(=O)Nc2cccc(Br)n2)c2ccc(-c3cnc(C)nc3)cc12 [Compound 1]
value kind: AUC(0-inf)
observed result: 3020

====

test name: Ocular tissue distribution and pharmacokinetics, 15 mg/kg BID oral, nonpigmented New Zealand White rabbits (Example 7)
Format: in vivo
experimental conditions: New Zealand White, rabbit, plasma, oral; NZW rabbits, Day 15, 15 mg/kg BID, 24 hr; read-out: Mean Plasma Concentration

structure string: CC(=O)c1nn(CC(=O)N2C[C@H](F)C[C@H]2C(=O)Nc2cccc(Br)n2)c2ccc(-c3cnc(C)nc3)cc12
concentration at 24 h (ng/mL): 11.7

====

test name: Ocular tissue and plasma pharmacokinetics, 15 mg/kg single and BID oral, Dutch Belted rabbits (Example 3/5)
Assay type: in vivo
experimental conditions: Dutch Belted, rabbit, plasma, po, 15 mg/kg, DB rabbit, 15 mg/kg single oral dose, Day 1, 24 h; read-out: Mean plasma concentration
value kind: concentration at 24 h (ng/mL)

molecule: CC(=O)c1nn(CC(=O)N2C[C@H](F)C[C@H]2C(=O)Nc2cccc(Br)n2)c2ccc(-c3cnc(C)nc3)cc12 [Compound 1]
value kind: concentration at 24 h
u: ng/mL
observed result: 25.4

====

test name: Ocular tissue and plasma pharmacokinetics, 50 mg/kg BID oral, Dutch Belted rabbits (Example 4/5)
Assay type: in vivo
experimental conditions: male, Dutch Belted, rabbit, choroid-RPE, po, 50 mg/kg, DB rabbit, 50 mg/kg BID oral, Day 15, 0 h; read-out: Mean Choroid-RPE concentration
Experimental: Study design, including group designation and dose levels, are outlined in Table 15. […] Two Dutch Belted rabbits received vehicle only oral gavage doses for tolerability assessment. […] The dose volume was 5 mL/kg/dose for all groups. Safety was assessed with toxicological and ophthalmic examinations, including slit lamp biomicroscopy, indirect ophthalmoscopy, rebound tonometry, and ultrasonic corneal pachymetry. […]

structure string: CC(=O)c1nn(CC(=O)N2C[C@H](F)C[C@H]2C(=O)Nc2cccc(Br)n2)c2ccc(-c3cnc(C)nc3)cc12
u: ng/g
concentration at 0 h: 3920

====

test name: Ocular tissue and plasma pharmacokinetics, 50 mg/kg BID oral, Dutch Belted rabbits (Example 4/5)
Assay type: in vivo
experimental conditions: male, Dutch Belted, po; Retina, DB rabbit, 50 mg/kg BID, Day 15
Experimental: Study design, including group designation and dose levels, are outlined in Table 15. […] Two Dutch Belted rabbits received vehicle only oral gavage doses for tolerability assessment. […] The dose volume was 5 mL/kg/dose for all groups. Safety was assessed with toxicological and ophthalmic examinations, including slit lamp biomicroscopy, indirect ophthalmoscopy, rebound tonometry, and ultrasonic corneal pachymetry. […]
value kind: MRT last

compound: CC(=O)c1nn(CC(=O)N2C[C@H](F)C[C@H]2C(=O)Nc2cccc(Br)n2)c2ccc(-c3cnc(C)nc3)cc12 [Compound 1]
observed result: 53.2 h

====

test name: Ocular tissue and plasma pharmacokinetics, 50 mg/kg BID oral, Dutch Belted rabbits (Example 4/5)
Assay type: in vivo
experimental conditions: male, Dutch Belted, po; Optic Nerve, DB rabbit, 50 mg/kg BID, Day 15
Experimental: Study design, including group designation and dose levels, are outlined in Table 15. […] Two Dutch Belted rabbits received vehicle only oral gavage doses for tolerability assessment. […] The dose volume was 5 mL/kg/dose for all groups. Safety was assessed with toxicological and ophthalmic examinations, including slit lamp biomicroscopy, indirect ophthalmoscopy, rebound tonometry, and ultrasonic corneal pachymetry. […]

compound: CC(=O)c1nn(CC(=O)N2C[C@H](F)C[C@H]2C(=O)Nc2cccc(Br)n2)c2ccc(-c3cnc(C)nc3)cc12 [Compound 1]
Cmax [ng/g]: 1550

====

test name: Ocular tissue distribution and pharmacokinetics, 7.5 and 15 mg/kg oral, pigmented Dutch Belted rabbits (Example 7)
Assay type: in vivo
experimental conditions: Dutch Belted, rabbit, retina, oral, […], DB rabbits, Day 15, […] BID, 0 hr; read-out: Mean Retina Concentration

compound: CC(=O)c1nn(CC(=O)N2C[C@H](F)C[C@H]2C(=O)Nc2cccc(Br)n2)c2ccc(-c3cnc(C)nc3)cc12 [Compound 1]
concentration at 0 h [ng/g]: 20.7

====

test name: Ocular tissue and plasma pharmacokinetics, 15 mg/kg single and BID oral, Dutch Belted rabbits (Example 3/5)
Type: in vivo
experimental conditions: Dutch Belted, rabbit, retina, oral, 15 mg/kg, DB rabbits, Day 15, 15 mg/kg BID, 0 hr; read-out: Mean Retina Concentration

structure string: CC(=O)c1nn(CC(=O)N2C[C@H](F)C[C@H]2C(=O)Nc2cccc(Br)n2)c2ccc(-c3cnc(C)nc3)cc12
concentration at 0 h [ng/g]: 114

====

test name: Ocular tissue and plasma pharmacokinetics, 50 mg/kg BID oral, Dutch Belted rabbits (Example 4/5)
Assay type: in vivo
experimental conditions: male, Dutch Belted, rabbit, retina, po, 50 mg/kg, DB rabbit, 50 mg/kg BID oral, Day 15, 168 h; read-out: Mean retina concentration

structure string: CC(=O)c1nn(CC(=O)N2C[C@H](F)C[C@H]2C(=O)Nc2cccc(Br)n2)c2ccc(-c3cnc(C)nc3)cc12
concentration at 168 h: 54.9 ng/g

====

test name: Ocular tissue distribution and pharmacokinetics, 7.5 and 15 mg/kg oral, pigmented Dutch Belted rabbits (Example 7)
Type: in vivo
experimental conditions: Dutch Belted, rabbit, choroid-RPE, oral, […], DB rabbits, Day 15, […] BID, 6 hr; read-out: Mean Choroid-RPE Concentration

compound: CC(=O)c1nn(CC(=O)N2C[C@H](F)C[C@H]2C(=O)Nc2cccc(Br)n2)c2ccc(-c3cnc(C)nc3)cc12 [Compound 1]
concentration at 6 h, ng/g: 1530

====

test name: Ocular tissue distribution and pharmacokinetics, 7.5 and 15 mg/kg oral, pigmented Dutch Belted rabbits (Example 7)
Type: in vivo
experimental conditions: male, Dutch Belted, rabbit, plasma, po, […], plasma, male DB rabbits, Group 1, Day 1, […] single oral dose; read-out: AUC0-12

structure string: CC(=O)c1nn(CC(=O)N2C[C@H](F)C[C@H]2C(=O)Nc2cccc(Br)n2)c2ccc(-c3cnc(C)nc3)cc12
AUC(0-t): 1450 ng·h/mL

====

test name: Ocular tissue distribution and pharmacokinetics, 7.5 and 15 mg/kg oral, pigmented Dutch Belted rabbits (Example 7)
Type: in vivo
experimental conditions: male, Dutch Belted, rabbit, retina, po, […], Retina (OU), male DB rabbits, Group 1, Day 1, […] single oral dose
value kind: Cmax

structure string: CC(=O)c1nn(CC(=O)N2C[C@H](F)C[C@H]2C(=O)Nc2cccc(Br)n2)c2ccc(-c3cnc(C)nc3)cc12
observed result: 188 ng/g
